tested on: SW-620 colon; test: NCI tumour cell line growth inhibition, 48 h

| compound | measured on | TGI |
| --- | --- | --- |
| COc1cccc2c1C(=O)c1c(O)c3c(c(O)c1C2=O)C[C@](O)(C(=O)CO)C[C@H]3O[C@@H]1C[C@@H](NC(=O)CCCN(C)C2(c3ccc(F)cc3)CC3CCC2C3)[C@H](O)[C@@H](C)O1 (some centres undefined) | SW-620 colon | 1.49 µM |
| O=C(CCN1CCCCC1)Nc1ccc2c(c1)C(=O)c1ccc(NC(=O)CCN3CCCCC3)cc1C2=O | SW-620 colon | 4.62 µM |
| N#Cc1c(-c2ccc([N+](=O)[O-])cc2)c2c([nH]c1=O)-c1ccccc1CCC2 | SW-620 colon | > 100 µM |
| COc1cc(C2c3cc4c(cc3OC(NNC(N)=S)C2C)OCO4)cc(OC)c1OC (centres undefined) | SW-620 colon | > 100 µM |
| COC(=O)CCc1n(Cc2ccc3ccccc3c2)c2ccccc2[n+]1Cc1ccc2ccccc2c1 | SW-620 colon | 2.85 µM |
| COc1cc(CSc2nc3ccc(Cl)cc3c(=O)n2Cc2ccccc2)cc(OC)c1OC | SW-620 colon | > 100 µM |
| COc1cc2c(c(OC)c1OC)-c1ccc(SC)c(=O)cc1[C@@H](NC(=O)c1cccc([N+](=O)[O-])c1)CC2 | SW-620 colon | > 100 µM |
| Clc1ccc(-c2cnc3c(-c4ccnc(N5CCNCC5)c4)cnn3c2)cc1 | SW-620 colon | 3.27 µM |
| Cc1cccc(N=Nc2c(C)nn(C(=O)CC(=O)Nc3ccc(Cl)cc3)c2C)c1 | SW-620 colon | > 100 µM |
| COCN1C(=O)[C@@H]2C[C@@H](O)CN2C(=O)c2ccccc21 | SW-620 colon | > 100 µM |
| Nc1ccc(Oc2ccc(C34CC5CC(C3)CC(c3ccc(Oc6ccc(N)cc6C(F)(F)F)cc3)(C5)C4)cc2)c(C(F)(F)F)c1 | SW-620 colon | > 100 µM |
| O=C1CCCc2ccc([N+](=O)[O-])c(O)c21 | SW-620 colon | > 100 µM |
| CCOC(=O)C(=[N+]=[N-])C(=O)CSC#N | SW-620 colon | > 100 µM |
| Cc1cccc2c(=O)c3c(sc12)c(NCCCNCCO)nc1ccccc13 | SW-620 colon | 2.99 µM |
| COc1ccccc1NC1Oc2cc3c(cc2C(c2cc(OC)c(OC)c(OC)c2)C1C)OCO3 (centres undefined) | SW-620 colon | > 100 µM |
| Cc1nc2ccc(Cl)cc2c2c1CCN2c1ccc(F)cc1 | SW-620 colon | > 100 µM |
| COc1ccc(Sc2[nH]c(C=O)c3ccccc23)cc1 | SW-620 colon | 16.4 µM |
| CCN1/C(=C/C(C)=C/c2sc3ccc4ccccc4c3[n+]2CC)Sc2ccc3ccccc3c21 | SW-620 colon | 0.277 µM |
| CCS1=C2C(=O)CC(C)(C)CC2=Nc2ccccc21 (centres undefined) | SW-620 colon | > 100 µM |

====

test system: SF-295 CNS; assay: NCI tumour cell line growth inhibition, 48 h

| compound | TGI |
| --- | --- |
| O=c1[nH]c2nc3ccccc3c(=O)n2/c1=C/c1ccccc1 | > 100 µM |
| CC(=O)C1C(=O)C(=O)N(c2ccc([N+](=O)[O-])cc2[N+](=O)[O-])C1=O (stereo not given) | > 100 µM |
| O=C(/C=C/c1ccc([N+](=O)[O-])cc1)N1CCN(CCOC(c2ccc(F)cc2)c2ccc(F)cc2)CC1 | > 100 µM |
| O=C1CCC2(c3ccc(Cl)cc3)Nc3ccccc3N12 (stereo not given) | > 100 µM |
| Clc1cc(Br)ccc1-c1ccc(CNCC2CCNCC2)o1 | 3.99 µM |
| OCc1ccc(-c2nc(-c3ccc4c(c3)OCO4)c(-c3ccccn3)[nH]2)cc1 | > 25 µM |
| Clc1ccc(-c2cnc3c(-c4ccnc(N5CCNCC5)c4)cnn3c2)cc1 | 3.57 µM |
| CC(C)CNC1=NCC(C)S1 (stereo not given) | > 100 µM |
| CCCCCCCCCCCCCCCCn1cc[n+](C)c1 | 1.43 µM |
| Cc1nc2ccccc2c(=O)n1/N=C(\N=Nc1ccccc1)c1ccccc1Cl | > 100 µM |
| CC[C@]12CN3CCc4c([nH]c5ccccc45)[C@@](C(=O)OC)(c4cc5c(cc4OC)N(C)[C@H]4[C@@](O)(C(=O)OC)[C@H](OC(C)=O)[C@]6(CC)C=CCN7CC[C@]54[C@@H]76)CC(C3)[C@H]1O2 (stereo not given in full) | > 12.3 µM |
| COc1ccccc1C#C/C=C\C#Cc1ccccc1C#N | 47.1 µM |
| O=C(C[C@@H]1CCCN2CCCC[C@H]12)N1c2ccccc2Sc2ccc(Cl)cc21 | 36.7 µM |
| Cc1csc2nc(-c3cccc([N+](=O)[O-])c3)c(/C=N/N=C(N)N)n12 | 3.12 µM |
| NC(=O)N/N=C(\CC1OC(=O)c2ccccc21)c1ccc([N+](=O)[O-])cc1 (stereo not given) | > 100 µM |
| Oc1ccc(N=Nc2ccc(Br)cc2)c(O)c1 | 11.5 µM |
| CCOC(=O)c1c(CN2CCNCC2)nc2ccc(Cl)cc2c1-c1ccccc1 | 5.97 µM |
| COc1cc2c3c(n(CCCN=[N+]=[N-])c(=O)c2cc1OC)-c1ccccc1C3=O | 9.86 µM |
| CC(=O)NC1=NC(=O)/C(=C/c2ccccc2Cl)N1C | > 100 µM |
| Cc1cc(C)c2c(=O)n(CC(O)CN(Cc3ccccc3)CC(O)Cn3sc4nc(C)cc(C)c4c3=O)sc2n1 (stereo not given) | 61.9 µM |
